biological target: UniProtKB Q99623; experiment: Induction of PHB2-mediated melanogenesis in human HBL cells assessed as pigmentation at 10 uM after 10 days relative to control; type: cell-based
Sequence (Q99623 whole entry): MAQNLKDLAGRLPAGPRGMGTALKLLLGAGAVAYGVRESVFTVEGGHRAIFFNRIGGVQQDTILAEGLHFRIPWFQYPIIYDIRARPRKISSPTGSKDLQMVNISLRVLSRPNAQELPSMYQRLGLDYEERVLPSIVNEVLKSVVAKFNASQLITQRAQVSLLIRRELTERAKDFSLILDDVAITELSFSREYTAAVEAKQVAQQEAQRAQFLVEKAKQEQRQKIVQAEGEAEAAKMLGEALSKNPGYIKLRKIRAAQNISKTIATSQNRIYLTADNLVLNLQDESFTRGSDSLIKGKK
Labelling field: enter true (1) if recorded fold change (FC) is less than 0.9. Enter false (0) if it equals or exceeds that cut-off.

As a guide, the following entries are already answered.
CC[C@H](CO)Nc1nc(Oc2c(F)c(F)c(F)c(F)c2F)nc(N(C)Cc2cccc(F)c2)n1
true (1)
CNc1nc(Oc2c(F)c(F)c(F)c(F)c2F)nc(N(C)Cc2cccc(F)c2)n1
true (1)
CC[C@H](CO)Nc1nc(N[C@H](C)c2ccccc2)nc(Oc2c(F)c(F)c(F)c(F)c2F)n1
true (1)

Quick check: fold change (FC) of CNc1nc(NCc2cccc(F)c2)nc(Oc2c(F)c(F)c(F)c(F)c2F)n1 under 0.9?
true (1)
